- testDetails: Volume of distribution in Sprague-Dawley rat at 10 mg/kg, iv
- Format: ADME, organism-based
- setupConditions: in vivo
measurementType: Vd (L/kg)

recordSmiles: CCC(C)(C)C(=O)O
reportedMeasurement: 1.22

* * *

- testDetails: AUC (0 to infinity) in CD1 mouse at 300 mg/kg, iv
- Assay type: ADME, organism-based
- Design: route intravenous, time infinity, dose 300 mg/kg
- setupConditions: in vivo

compound: CCC(C)(C)C(=O)O [DIMEBUTIC ACID]
measureUnit: µg·h/mL
AUC(0-inf): 1250

* * *

- testDetails: Half life in CD1 mouse at 100 mg/kg, po
- Format: ADME, organism-based
- setupConditions: in vivo

recordSmiles: CCC(C)(C)C(=O)O
measureUnit: h
half-life: 1.09
